- target-desc: CBP bromodomain (Homo sapiens)
- Construct: CBP (residues 1081-1197); 6xHis (cleaved yes); host or cells: E. coli BL21 (DE3) RIL
- Sequence (Q92793 1081-1197): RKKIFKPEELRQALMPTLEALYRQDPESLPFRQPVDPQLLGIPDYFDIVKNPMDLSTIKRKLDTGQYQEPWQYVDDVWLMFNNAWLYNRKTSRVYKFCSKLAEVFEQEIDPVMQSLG
- measurement-notes: Differential scanning fluorimetry (DSF) thermal shift
- Assay type: binding
- measurement-context: DSF; 5 μM protein, 100 μM compound; three independent experiments, average ± SD
quantity-kind: ∆Tm (°C) CBP
Report the figure in °C without appending any unit label.

// worked examples, ∆Tm (°C) CBP included
COC1CCC(n2c(C3CCCC(=O)N3c3cccc(C(C)(C)C)c3)nc3cc(-c4c(C)noc4C)ccc32)CC1 (stereo not drawn) = 15.3
COC1CCC(n2c(C3CCCC(=O)N3c3ccc4c(c3)OCCO4)nc3cc(-c4c(C)noc4C)ccc32)CC1 (stereo not drawn) = 15.5

Exercise: Recorded ∆Tm (°C) CBP for COC1CCC(n2c(C3CCCC(=O)N3c3cc(C(F)(F)F)cc(C(F)(F)F)c3)nc3cc(-c4c(C)noc4C)ccc32)CC1 (stereo not drawn) , please?
Key: 9.9
